Here the recorded IDR is given for each entry.
# assay summary: Intrinsic dissolution rate (IDR)
# Format: physicochemical
# cond: pH 5.0 USP buffer, 37° C., 50 RPM; Form I from one non capped pellet
measured endpoint: IDR (mg cm^−2 min^−1)

# compound, measured endpoint, value unit, test value
measured = [
    ("CN(C)c1cc2c(cc1Sc1nc3c(N)nccc3n1CCNCC(C)(C)C)OCO2 [Trihydrate]", "IDR", "mg cm^−2 min^−1", 0.184),
    ("CN(C)c1cc2c(cc1Sc1nc3c(N)nccc3n1CCNCC(C)(C)C)OCO2 [Form II]", "IDR", "mg cm^−2 min^−1", 0.098),
    ("CN(C)c1cc2c(cc1Sc1nc3c(N)nccc3n1CCNCC(C)(C)C)OCO2 [Compound 1 Form I]", "IDR", "mg cm^−2 min^−1", 0.101),
    ("CN(C)c1cc2c(cc1Sc1nc3c(N)nccc3n1CCNCC(C)(C)C)OCO2 [Form III]", "IDR", "mg cm^−2 min^−1", 0.266),
]

====

# assay summary: Solubility, EP (European Pharmacopoeia) aliquot addition method
# Assay type: physicochemical
# cond: organic solvent or mixture; ethanol, 25° C., EP method (kinetic solubility)

# compound, solubility at 15 min
data = [
    ("CN(C)c1cc2c(cc1Sc1nc3c(N)nccc3n1CCNCC(C)(C)C)OCO2 [Compound 1 Form I]", "33 to 100 mg/mL"),
]
